molecular target: acid ceramidase (Homo sapiens, UniProt Q13510); construct: Cell lysates overexpressing acid ceramidase were used as the enzyme source; expressed in transfected cells; experiment: Acid ceramidase inhibition, biochemical fluorescent assay with cell lysates overexpressing acid ceramidase, substrate Rbm14-12; settings: substrate Rbm14-12 6.3 μM, pH 4.5
Sequence (Q13510 22-395): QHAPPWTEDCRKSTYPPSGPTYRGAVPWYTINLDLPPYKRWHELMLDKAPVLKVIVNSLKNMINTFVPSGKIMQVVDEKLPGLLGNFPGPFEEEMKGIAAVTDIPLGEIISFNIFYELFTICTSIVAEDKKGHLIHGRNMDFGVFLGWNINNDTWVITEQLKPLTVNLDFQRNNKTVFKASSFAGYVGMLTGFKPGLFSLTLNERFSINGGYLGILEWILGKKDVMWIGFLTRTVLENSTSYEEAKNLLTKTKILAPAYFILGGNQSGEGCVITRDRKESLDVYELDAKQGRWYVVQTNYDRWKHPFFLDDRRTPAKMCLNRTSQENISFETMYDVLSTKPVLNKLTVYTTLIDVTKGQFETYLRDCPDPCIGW
pIC50: −log10 of the molar value.
reported_metric: pIC50

Entry COC1(C)CN(c2cccc3c2ncn3C(=O)NCCC(C)C)C1 : reported pIC50 = ? 6.00 to 6.70

Same question for CC(C)CCNC(=O)n1cnc2c(N3CC4(COC4)C3)cccc21 please. 6.00 to 6.70

Same question for CC(C)C#CCNC(=O)n1cnc2c(N3CC3C(F)(F)F)cccc21 (stereo not shown) please. > 6.70

Same question for CC(C)CCNC(=O)n1cnc2c(N3CCN(C)CC3)cc(C#N)cc21 please. > 6.70

Same question for Cc1ccc(CNC(=O)n2cnc3c(N4CCN(C)CC4)cccc32)cc1 please. > 6.70

Same question for O=C(NCCCCc1ccccc1)n1cnc2c(N3CCC4(CC3)COC4)cccc21 please. > 6.70

Same question for CN1CCCN(c2cccc3c2ncn3C(=O)NCCCc2ccccc2)CC1 please. > 6.70

Data provenance is patent US20220380319A1.
